Experimental details: Antioxidant activity assessed as DPPH free radical scavenging activity after 1 hr by microplate reader based assay
Format: functional
pIC50: −log10 of the molar value.
pIC50 vs 4: at or above is rule met, below is rule not met.

COc1cc(CNCCCCCCCN2C(=O)c3cccc4cccc(c34)C2=O)ccc1O :: rule met
COc1cc(CNCCCCN2C(=O)c3cccc4cccc(c34)C2=O)ccc1O :: rule met
COc1cc(C=O)ccc1O [VANILLIN] :: rule not met
COc1cc(CN(CCCN2C(=O)c3cccc4cccc(c34)C2=O)Cc2ccc(O)c(OC)c2)ccc1O :: rule met

###

Assay system: Acetylcholinesterase (Electrophorus electricus, UniProt O42275)
Sequence (O42275 whole entry): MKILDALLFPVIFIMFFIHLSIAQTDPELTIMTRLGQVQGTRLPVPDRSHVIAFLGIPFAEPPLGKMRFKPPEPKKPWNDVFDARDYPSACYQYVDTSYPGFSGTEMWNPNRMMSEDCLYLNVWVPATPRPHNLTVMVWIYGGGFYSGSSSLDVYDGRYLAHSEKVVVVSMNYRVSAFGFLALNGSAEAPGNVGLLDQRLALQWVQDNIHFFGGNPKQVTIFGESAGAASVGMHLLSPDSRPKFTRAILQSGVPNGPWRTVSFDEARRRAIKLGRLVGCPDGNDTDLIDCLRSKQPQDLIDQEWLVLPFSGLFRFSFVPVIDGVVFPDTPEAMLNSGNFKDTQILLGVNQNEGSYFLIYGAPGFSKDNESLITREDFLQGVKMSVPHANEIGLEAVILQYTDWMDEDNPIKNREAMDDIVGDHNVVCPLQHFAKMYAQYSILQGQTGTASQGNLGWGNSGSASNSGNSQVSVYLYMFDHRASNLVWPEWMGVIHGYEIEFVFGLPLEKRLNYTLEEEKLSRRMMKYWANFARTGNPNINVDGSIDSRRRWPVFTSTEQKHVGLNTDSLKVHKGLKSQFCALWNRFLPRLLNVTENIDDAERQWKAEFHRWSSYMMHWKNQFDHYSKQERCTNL
Experimental details: Inhibition of electric eel AChE by Ellman's method
pIC50: −log10 of the molar value.
molecules and their reported pIC50
Measure name: pIC50

COc1cc(CNCCCCN2C(=O)c3cccc4cccc(c34)C2=O)ccc1O :: 4.86
COc1cc(CNCCCCCCCN2C(=O)c3cccc4cccc(c34)C2=O)ccc1O :: 5.48
CN(C)C(=O)Oc1cccc([N+](C)(C)C)c1 [NEOSTIGMINE] :: 5.12
COc1cc(CNCCCCCCN2C(=O)c3ccccc3C2=O)ccc1O :: 5.33
COc1cc(CN(CCCN2C(=O)c3cccc4cccc(c34)C2=O)Cc2ccc(O)c(OC)c2)ccc1O :: 4.84

###

Assay system: Cholinesterase (Equus caballus, UniProt P81908)
Sequence (P81908 whole entry): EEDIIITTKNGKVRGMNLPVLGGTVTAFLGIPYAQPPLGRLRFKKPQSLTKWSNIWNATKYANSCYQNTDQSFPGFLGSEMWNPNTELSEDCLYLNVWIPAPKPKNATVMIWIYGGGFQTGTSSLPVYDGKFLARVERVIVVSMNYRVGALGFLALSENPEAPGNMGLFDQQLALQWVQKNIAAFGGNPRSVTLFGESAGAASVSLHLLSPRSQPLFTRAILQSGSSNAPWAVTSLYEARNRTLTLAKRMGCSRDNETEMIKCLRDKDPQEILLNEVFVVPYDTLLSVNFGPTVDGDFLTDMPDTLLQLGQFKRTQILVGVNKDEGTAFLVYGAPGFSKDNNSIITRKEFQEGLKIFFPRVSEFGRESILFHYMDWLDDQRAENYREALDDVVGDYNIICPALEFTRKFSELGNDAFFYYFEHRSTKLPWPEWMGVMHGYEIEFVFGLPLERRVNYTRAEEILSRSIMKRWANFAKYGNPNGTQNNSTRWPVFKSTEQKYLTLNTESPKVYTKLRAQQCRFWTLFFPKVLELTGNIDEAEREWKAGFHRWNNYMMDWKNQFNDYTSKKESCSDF
compounds and their reported log10(IC50)
Measure name: log10(IC50) (log10 of the value in nM)

COc1cc(CNCCCCCCN2C(=O)c3ccccc3C2=O)ccc1O :: 2.57
COc1cc(CNCCCCN2C(=O)c3cccc4cccc(c34)C2=O)ccc1O :: 2.95
CN(C)C(=O)Oc1cccc([N+](C)(C)C)c1 [NEOSTIGMINE] :: 3.47
COc1cc(CN(CCCN2C(=O)c3cccc4cccc(c34)C2=O)Cc2ccc(O)c(OC)c2)ccc1O :: 2.43
COc1cc(CNCCCCCCCN2C(=O)c3cccc4cccc(c34)C2=O)ccc1O :: 3.18

###

Experimental details: Selectivity index, ratio of IC50 for electric eel AChE to IC50 for equine BuChE
compounds and their reported Ratio IC50
Measure name: Ratio IC50

COc1cc(CN(CCCN2C(=O)c3cccc4cccc(c34)C2=O)Cc2ccc(O)c(OC)c2)ccc1O :: 53.1
CN(C)C(=O)Oc1cccc([N+](C)(C)C)c1 :: 2.56
COc1cc(CNCCCCCCCN2C(=O)c3cccc4cccc(c34)C2=O)ccc1O :: 2.22
COc1cc(CNCCCCN2C(=O)c3cccc4cccc(c34)C2=O)ccc1O :: 15.2
COc1cc(CNCCCCCCN2C(=O)c3ccccc3C2=O)ccc1O :: 12.6
